- ASSAY_TEXT: Cmax in male cynomolgus monkey at 15 mg/kg, iv measured on day 1
- Format: ADME, organism-based, Macaca fascicularis
- Set-up: route intravenous, dose 15 mg/kg
- CONDITIONS: in vivo
REPORTED_METRIC: Cmax (µM)
Field: numeric (µM). Do not append units.

Qu. Reported Cmax for Cn1cc(C[C@@H](N)C(=O)O)c2ccccc21 [INDOXIMOD] : what is it?
Ans. 39.5

Qu. Again, but for CCOC(=O)[C@@H](Cc1cn(C)c2ccccc12)NC(=O)[C@@H](N)CC(C)C.Cl
Ans. 0.135

---

- ASSAY_TEXT: Chemical stability of compound in PBS buffer assessed as compound remaining at pH 7.4 at 5 uM measured after 24 hrs by LC-MS/MS analysis
- Type: physicochemical
- CONDITIONS: read-out: Stabilty
I'd appreciate it if you could supply remaining at 24 h, 5 µM values for the items below.
Field: numeric (%). Do not append units.

Qu. Reported remaining at 24 h, 5 µM for CCOC(=O)[C@@H](Cc1cn(C)c2ccccc12)NC(=O)[C@@H](N)CCC(N)=O.Cl : what is it?
Ans. 17

Qu. Again, but for CCOC(=O)[C@H](N)Cc1cn(C)c2ccccc12.Cl
Ans. 52

Qu. Again, but for Cl.Cn1cc(C[C@@H](N)C(=O)N[C@H](Cc2cn(C)c3ccccc23)C(=O)O)c2ccccc21
Ans. 34

Qu. Again, but for CC[C@H](C)[C@H](N)C(=O)N[C@H](Cc1cn(C)c2ccccc12)C(=O)O.Cl
Ans. 100

Qu. Again, but for C[C@H](N)C(=O)N[C@H](Cc1cn(C)c2ccccc12)C(=O)O.Cl
Ans. 34

Sourced from ChEMBL document CHEMBL4837181
